CONDITION_DESCRIPTION: 283.15 K; 100 kPa; Liquid

# COMPOUND, mass density [kg/m3]
rows = [
    ("CCCCCCCCCCCCCC[P+](CCCCCC)(CCCCCC)CCCCCC.N#C[N-]C#N [tetradecyl(trihexyl)phosphonium dicyanamide]", 907.5),
    ("CCCCCCCCCCCCCC[P+](CCCCCC)(CCCCCC)CCCCCC.[Br-] [tetradecyltrihexylphosphonium bromide]", 962.7),
    ("CCCCCCCCCCCCCC[P+](CCCCCC)(CCCCCC)CCCCCC.O=S(=O)([N-]S(=O)(=O)C(F)(F)F)C(F)(F)F", 1077.4),
    ("CCCCCCCCCCCCCC[P+](CCCCCC)(CCCCCC)CCCCCC.CS(=O)(=O)[O-] [trihexyltetradecylphosphonium methanesulfonate]", 938),
    ("CCCCCCCCCCCCCC[P+](CCCCCC)(CCCCCC)CCCCCC.[Cl-] [trihexyl(tetradecyl)phosphonium chloride]", 898.4),
]
